Several reports have described IC50 for UniProt O08775; a selection of those results is presented here.

> print(dat)
                              item.smiles  subject.of.test  measured.quantity     value
1  Cc1nnsc1C(=O)Nc1cccc2sc(Nc3ccccc3)nc12   UniProt O08775               IC50  > 100 µM

Problem: Check the records and state IC50 for "COc1ccc(Nc2nc3c(NC(=O)c4c(F)ccc(C)c4F)cccc3s2)cc1"
Result: > 100 µM

Problem: Using the record for "COCc1cccc2[nH]c(-c3n[nH]c4ncc(-c5cnccc5C)cc34)nc12" , state its measured IC50.
Result: > 1 µM

Problem: Fill in reported IC50 for this entry: "Nc1nc(Nc2cccc(Cl)c2)ccc1C(=O)c1c(F)cccc1F"
Result: > 100 µM

Problem: For the compound "Nc1nc(Nc2ccc(NS(=O)(=O)c3ccccc3)cc2)ccc1C(=O)c1c(F)cccc1F" , give its reported IC50.
Result: > 10 µM

Problem: Look up and report measured IC50 for this entry: "COCc1cccc2[nH]c(-c3n[nH]c4ncc(-c5ccc(N6CCOCC6)nc5)cc34)nc12"
Result: 0.121 µM

Problem: Return value of IC50 for input "COc1cccc(OC)c1C(=O)Nc1cccc2sc(Nc3ccccc3)nc12" , no commentary.
Result: > 100 µM

Problem: Determine its reported IC50: "O=C(Nc1cccc2sc(Nc3ccccc3)nc12)c1cccc(Br)c1"
Result: > 100 µM

Problem: Tell me IC50 reported for "O=C(Nc1cccc2sc(Nc3ccccc3)nc12)C1CCCC1"
Result: > 100 µM

Problem: Item "O=C1NCc2cccc(-c3cc4cc(OCCN5CCOCC5)ccc4[nH]3)c21" : provide IC50
Result: 0.074 µM

Problem: Identify measured IC50 associated with "O=C1NCc2cccc(-c3cc4cc(OCCCO)ccc4[nH]3)c21"
Result: 0.03 µM
